The measured values listed here are drawn from patent US11780826B2.

Each entry below carries its recorded AC1.4.
test system: Bovine cardiac myofibrils; assay: In vitro model of dose-dependent myofibril ATPase modulation (AC1.4, pyruvate kinase/lactate dehydrogenase-coupled ATPase assay at pCa25); format: biochemical; conditions: concentration at which ATPase activity was 1.4-fold higher than the bottom of the dose curve, mean of a minimum of two independent tests
EXPERIMENTAL READOUT: AC1.4 (µM)

• C[C@H](C(=O)N[C@H](C)c1ccc(C(F)(F)F)cc1F)N(C)C(=O)[C@H]1CCCN(S(=O)(=O)N2CC(C#N)C2)C1 [Example 209] = 0.4473
• Cc1noc(C(=O)N2[C@@H](C(=O)N[C@@H](c3cc(F)c(C(F)(F)F)cc3F)C3COC3)C[C@H]3C[C@H]32)c1C [Example 824] = 8.874
• Cc1cc(CNC(=O)[C@H]2CCCN2C(=O)[C@H]2CCCN(S(=O)(=O)N3CC(C#N)C3)C2)cc(C)c1F [Example 445] = 1.823
• O=C(N[C@@H](c1cc(F)c(Cl)cc1F)C1CC1)[C@H]1C[C@H]2C[C@H]2N1C(=O)c1ccnc(S(=O)(=O)C2CC2)c1 [Example 295] = 0.7671
• CS(=O)(=O)c1cccc(C(=O)N2[C@@H](C(=O)N[C@@H]3CCc4cc(Cl)ccc43)C[C@H]3C[C@H]32)c1 [Example 753] = 7.42
• CC(C)Nc1ccc(S(C)(=O)=O)cc1C(=O)N1[C@@H](C(=O)N[C@@H](c2ccc(C(F)(F)F)cc2F)C2CC2)C[C@H]2C[C@H]21 [Example 61] = 0.0687
• O=C(NCc1ccc(C(F)(F)F)cc1)[C@H]1CCCN1C(=O)c1cccc(S(=O)(=O)Cc2ccccc2)c1 [Example 454] = 1.8665
• C[C@@H](NC(=O)[C@H]1CCCN1C(=O)[C@H]1CCCN(S(=O)(=O)N2CC(C#N)C2)C1)c1ccc(C(F)(F)F)cc1 [Example 84] = 0.1147
• N#CC1CN(S(=O)(=O)N2CC[C@H](C(=O)N3CCC[C@@H]3C(=O)NCc3ccc(C(F)(F)F)cc3)C2)C1 [Example 648] = 4.421
• N#CC1CC(S(=O)(=O)c2cccc(C(=O)N3CCCC[C@@H]3C(=O)NCc3ccc(Cl)nc3)c2)C1 (stereo partly shown) [Example 620] = 3.94
• O=C(NCc1ccc(C(F)(F)F)cc1)[C@H]1COCCN1C(=O)c1cccc(S(=O)(=O)N2CC3(CC3)C2)c1 [Example 537] = 2.7025
• Cc1ccc(C(C)NC(=O)[C@H]2CCCN2C(=O)[C@H]2CCCN(S(=O)(=O)N3CC(C#N)C3)C2)cc1F (stereo partly shown) [Example 155] = 0.272
• CC[C@H](NC(=O)[C@H]1CCCN1C(=O)[C@H]1CCCN(S(=O)(=O)N2CC(C#N)C2)C1)c1cc(F)cc(F)c1 [Example 468] = 1.9855

###

test system: Bovine cardiac myofibrils; assay: In vitro model of dose-dependent myofibril ATPase modulation (AC1.4, pyruvate kinase/lactate dehydrogenase-coupled ATPase assay at pCa25); type: biochemical; details: concentration at which ATPase activity was 1.4-fold higher than the bottom of the dose curve, mean of a minimum of two independent tests
Everything with AC1.4 lower than 3 µM is no; everything else, including exactly 3 µM, is yes.

• CS(=O)(=O)c1cccc(C(=O)N2[C@@H](C(=O)N[C@@H](c3ccc(Cl)cc3F)C3CC3)C[C@H]3C[C@H]32)c1 = no
• O=C(N[C@@H](c1ccc(C(F)(F)F)cc1F)C1CC1)[C@H]1C[C@H]2C[C@H]2N1C(=O)c1ccccc1NC(=O)C(F)(F)F = no
• O=C(NCc1ccc(C(F)(F)F)cc1)[C@H]1CCCN1C(=O)[C@H]1CCCN(S(=O)(=O)N2CCC(F)(F)C2)C1 = yes
• COc1cccc(CNC(=O)[C@H]2CCCN2C(=O)[C@H]2CCCN(S(=O)(=O)N3CC(C#N)C3)C2)c1Cl = yes
• Cc1cccc(CNC(=O)[C@H]2CCCN2C(=O)[C@H]2CCCN(S(=O)(=O)N3CC(C#N)C3)C2)c1F = yes

###

test system: Bovine cardiac myofibrils; assay: In vitro model of dose-dependent myofibril ATPase modulation (AC1.4, pyruvate kinase/lactate dehydrogenase-coupled ATPase assay at pCa25); type: biochemical; settings: concentration at which ATPase activity was 1.4-fold higher than the bottom of the dose curve, mean of a minimum of two independent tests
Below: a set of entries, each annotated with reported AC1.4.
EXPERIMENTAL READOUT: AC1.4 (µM)

- CS(=O)(=O)c1cccc(C(=O)N2CC[C@@H](F)[C@@H]2C(=O)N[C@@H](c2ccc(C(F)(F)F)cc2F)C2CC2)c1 [Example 589]: 2.881
- O=C(N[C@@H](c1ccc(C(F)(F)F)cc1F)C1CC1)[C@H]1C[C@H]2C[C@H]2N1C(=O)c1ccnc(C(F)F)c1 [Example 605]: 3.685
- CCN(CC)S(=O)(=O)c1cccc(C(=O)N2CCC[C@@H]2C(=O)NCc2ccc(C(F)(F)F)cc2)c1 [Example 564]: 3.077
- N#CC1(c2cccc(C(=O)N3CCC[C@@H]3C(=O)N[C@@H](c3ccc(C(F)(F)F)cc3F)C3CC3)c2)CC1 [Example 604]: 3.679
- O=C(N[C@@H](c1cc(F)c(Cl)cc1F)C1COC1)[C@H]1C[C@@H](O)CN1C(=O)c1cncc(C(F)(F)F)c1 [Example 638]: 4.1835
- O=C(NCc1ccc(C(F)(F)F)cc1)[C@H]1CCCN1C(=O)[C@H]1CCCN(S(=O)(=O)N2CCC2c2cccc(F)c2)C1 (stereo partly shown) [Example 166]: 0.2807
- N#CC1CN(S(=O)(=O)N2CCCC(F)(C(=O)N3CCC[C@@H]3C(=O)NCc3ccc(C(F)(F)F)cc3)C2)C1 (stereo partly shown) [Example 514]: 2.433

###

test system: Bovine cardiac myofibrils; experiment: In vitro model of dose-dependent myofibril ATPase modulation (AC1.4, pyruvate kinase/lactate dehydrogenase-coupled ATPase assay at pCa25); format: biochemical; conditions: concentration at which ATPase activity was 1.4-fold higher than the bottom of the dose curve, mean of a minimum of two independent tests
EXPERIMENTAL READOUT: log10(AC1.4) (log10 of the value in µM)

* O=C(NCc1ccc(C(F)(F)F)cc1)[C@H]1CCCN1C(=O)c1cccc(S(=O)(=O)N2CCC2)c1 | 0.34
* CS(=O)(=O)c1cccc(C(=O)N2C=CC[C@@H]2C(=O)N[C@@H](c2ccc(C(F)(F)F)cc2F)C2CC2)c1 | 0.08
* O=C(N[C@@H](c1ccc(C(F)(F)F)cc1F)C1CC1)[C@H]1CCCN1C(=O)c1cccc(C(O)C(F)(F)F)c1 (some centres unmarked) | 0.46
* CS(=O)(=O)c1cncc(C(=O)N2CCCC[C@@H]2C(=O)N[C@@H](c2cc(F)c(Cl)cc2F)C2CC2)c1 | -0.12
* N#CC1CN(S(=O)(=O)c2cccc(C(=O)N3CCC[C@@H]3C(=O)N[C@@H](CO)c3cccc(C(F)(F)F)c3)c2)C1 | 0.12
* COC(=O)CNS(=O)(=O)c1cccc(C(=O)N2CCC[C@@H]2C(=O)NCc2ccc(C(F)(F)F)cc2)c1 | 0.90
* CS(=O)(=O)N1CCC[C@H](C(=O)N2[C@@H](C(=O)N[C@@H](c3cc(F)c(Cl)cc3F)C3CC3)C[C@H]3C[C@H]32)C1 | -0.15
* C[C@@H](NC(=O)[C@H]1CCCN1C(=O)[C@H]1CCCN(S(=O)(=O)N2CC(C)(O)C2)C1)c1ccc(C(F)(F)F)cc1F | 0.55
* N#CC1CN(S(=O)(=O)N2CCC[C@H](C(=O)N3CCC[C@@H]3C(=O)NC3Cc4ccccc43)C2)C1 (some centres unmarked) | 0.76
* CS(=O)(=O)c1ccc(F)c(C(=O)N2CCC[C@@H]2C(=O)N[C@@H](c2ccc(C(F)(F)F)cc2F)C2CC2)c1 | 0.21
* O=C(NCc1ccc(C(F)(F)F)cc1)[C@H]1CCCN1C(=O)[C@H]1CCCN(S(=O)(=O)N2CCC2c2cccc(Br)c2)C1 (some centres unmarked) | -0.49
* O=C(NCc1ccc(C(F)(F)F)cc1)[C@H]1CCCN1C(=O)[C@H]1CCCN(S(=O)(=O)N2CC(c3ccc(F)cc3)C2)C1 | 0.32
* Cc1cc(C(=O)N2[C@@H](C(=O)N[C@@H](c3cc(F)c(C(F)(F)F)cc3F)C3CC3)C[C@H]3C[C@H]32)ccn1 | 0.80
* C[C@@H](NC(=O)[C@H]1CCCN1C(=O)[C@@H]1CN(S(=O)(=O)N2CC(C#N)C2)CCO1)c1ccc(C(F)(F)F)cc1F | -1.01
* O=C(NCc1ccc(C(F)(F)F)cc1)[C@H]1CCCN1C(=O)[C@H]1CCCN(S(=O)(=O)N2CCC2c2ccc(Cl)cc2)C1 (some centres unmarked) | 0.74
* O=C(N[C@@H](c1ccc(C(F)(F)F)cc1F)C1CC1)[C@H]1CCCN1C(=O)c1cccc(-c2ccsc2)c1 | 0.82
* O=C(NCc1ccc(C(F)(F)F)cc1)[C@H]1CCCN1C(=O)[C@H]1CCCN(S(=O)(=O)C2CCOC2)C1 (some centres unmarked) | 0.90
* N#CC1CN(S(=O)(=O)N2CCC(F)(F)[C@H](C(=O)N3CCC[C@@H]3C(=O)NCc3ccc(C(F)(F)F)cc3)C2)C1 | -0.61
* Cc1ccc(C(F)(F)F)c(CNC(=O)[C@H]2CCCN2C(=O)[C@H]2CCCN(S(=O)(=O)N3CC(C#N)C3)C2)c1 | 0.86
* COc1cc(CNC(=O)[C@H]2CCCN2C(=O)[C@H]2CCCN(S(=O)(=O)N3CC(C#N)C3)C2)ccc1C | 0.13
* N#CC1CN(S(=O)(=O)N2CC(C(=O)N3CCC[C@@H]3C(=O)NCc3ccc(C(F)(F)F)cc3)CC(F)(F)C2)C1 (some centres unmarked) | -0.99
* O=C(N[C@@H](c1cc(F)c(Cl)cc1F)C1COC1)[C@H]1C[C@H]2C[C@H]2N1C(=O)c1cc(C2CC2)ccn1 | 0.30
* O=C(N[C@@H](c1ccc(C(F)(F)F)cc1F)C1CC1)[C@H]1C[C@H]2C[C@H]2N1C(=O)c1cncc(C(F)(F)F)c1 | 0.70
* N#C[C@H]1C[C@H](S(=O)(=O)c2cccc(C(=O)N3CCCC[C@@H]3C(=O)NCc3ccc(Cl)nc3)c2)C1 | 0.19
* N#CC1CN(S(=O)(=O)N2CCO[C@H](C(=O)N3CCC[C@@H]3C(=O)NCc3ccc(C(F)(F)F)cc3F)C2)C1 | -0.75
* COc1cc2c(cc1F)CCC2NC(=O)[C@H]1CCCN1C(=O)[C@H]1CCCN(S(=O)(=O)N2CC(C#N)C2)C1 (some centres unmarked) | 0.60
